# Measured target: Human M3 receptor (Homo sapiens, UniProt P20309)
# Sequence (P20309 whole entry): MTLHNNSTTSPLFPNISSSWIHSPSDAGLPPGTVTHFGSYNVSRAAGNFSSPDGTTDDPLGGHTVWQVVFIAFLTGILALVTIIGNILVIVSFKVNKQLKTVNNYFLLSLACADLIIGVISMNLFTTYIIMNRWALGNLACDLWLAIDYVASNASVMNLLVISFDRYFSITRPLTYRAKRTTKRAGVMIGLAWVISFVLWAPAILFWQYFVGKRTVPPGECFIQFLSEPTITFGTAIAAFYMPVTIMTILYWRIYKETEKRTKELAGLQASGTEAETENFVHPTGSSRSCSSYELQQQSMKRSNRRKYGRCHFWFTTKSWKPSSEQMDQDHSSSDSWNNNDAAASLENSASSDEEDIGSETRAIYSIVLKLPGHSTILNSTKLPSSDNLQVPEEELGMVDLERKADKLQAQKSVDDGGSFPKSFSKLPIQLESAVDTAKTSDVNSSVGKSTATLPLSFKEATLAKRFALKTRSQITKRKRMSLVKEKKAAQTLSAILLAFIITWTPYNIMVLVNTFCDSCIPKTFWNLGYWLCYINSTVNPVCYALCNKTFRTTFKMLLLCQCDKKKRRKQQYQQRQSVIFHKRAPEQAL
pIC50: −log10 of the molar value.
Attribute measured: pIC50

Smiles str	pIC50
COc1cc(C(=O)N[C@H]2C[C@H](NC(=O)COc3cccc([C@](O)(C(=O)OCC4CCN(Cc5ccccc5)CC4)c4ccccc4)c3)C2)ccc1CNC[C@H](O)c1ccc(O)c2[nH]c(=O)ccc12	8.52 to 9.52

Q: Please give the measured pIC50 for this molecule: O=C(COc1cccc([C@](O)(C(=O)OCC2CCN(Cc3ccccc3)CC2)c2ccccc2)c1)N[C@H]1C[C@H](NC(=O)c2ccc(CNC[C@H](O)c3ccc(O)c4[nH]c(=O)ccc34)c(Cl)c2)C1
Result: 8.52 to 9.52

Q: How about O=C(OCC1CCN(Cc2ccccc2)CC1)[C@](O)(c1ccccc1)c1cccc(OCC2CCN(C(=O)[C@H]3CC[C@H](C(=O)N4CCC(CNC[C@H](O)c5ccc(O)c6[nH]c(=O)ccc56)CC4)CC3)CC2)c1 ?
Result: 8.52 to 9.52
